studySystem: Alpha-2A adrenergic receptor (Homo sapiens, UniProt P08913)
Sequence (P08913 whole entry): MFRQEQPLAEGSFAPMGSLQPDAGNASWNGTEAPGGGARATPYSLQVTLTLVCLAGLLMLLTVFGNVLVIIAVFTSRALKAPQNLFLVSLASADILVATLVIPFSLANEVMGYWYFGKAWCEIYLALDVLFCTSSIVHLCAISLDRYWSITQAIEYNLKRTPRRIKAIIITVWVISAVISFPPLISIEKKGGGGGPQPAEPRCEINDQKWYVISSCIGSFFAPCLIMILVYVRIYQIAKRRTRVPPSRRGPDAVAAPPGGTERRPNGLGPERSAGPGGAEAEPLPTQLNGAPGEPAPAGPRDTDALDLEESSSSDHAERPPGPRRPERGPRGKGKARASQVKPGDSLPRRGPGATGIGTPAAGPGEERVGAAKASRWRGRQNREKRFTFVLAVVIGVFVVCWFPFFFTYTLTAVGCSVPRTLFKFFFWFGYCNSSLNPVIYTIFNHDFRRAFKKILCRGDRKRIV
Assay type: cell membranes, Sf9, Membrane
conditionParameters: read-out: Ki
pKi: −log10 of the molar value.
Would you mind labelling by pKi? At or over 6 is fulfilled, under is not fulfilled.

Is the recorded value of pKi equal to or greater than 6 for this molecule? `CCCCCCCCCc1ccc(O)cc1`
not fulfilled

Is the recorded value of pKi equal to or greater than 6 for this molecule? `CN1C[C@H](C(=O)N[C@]2(C)O[C@@]3(O)[C@@H]4CCCN4C(=O)[C@H](Cc4ccccc4)N3C2=O)C=C2c3cccc4[nH]cc(c34)C[C@H]21`
fulfilled

Is the recorded value of pKi equal to or greater than 6 for this molecule? Clc1ccc(C(c2ccccc2Cl)C(Cl)Cl)cc1 (stereo not given)
not fulfilled
